The values you see were collected from a melting point compilation (Tetko et al.; mined from patent text by program, amines drawn as free bases though some values may be those of a salt).

Listed here: items and their measured melting point.

Value of melting point reported for the compound O=C(CCC(=O)OC(=O)CCC(=O)OCc1ccccc1)OCc1ccccc1 is 70 to 71 °C

The value of melting point measured for the compound O=C(O)COc1ccc(CN2C(=O)C3(COc4cc5c(cc43)CCO5)c3ccccc32)cc1 (stereo unspecified) turned out to be 265 to 266 °C

Entry CC(C)CN1C(=O)CN=C(N2CCN(C)CC2)c2ccccc21 — recorded melting point = 134 to 136 °C

For this compound ( CCOC(=O)c1cn(C2CCCCC2)c2cc(I)ccc2c1=O ), measured melting point is 169 to 171 °C

The compound identified as CCCNC1CCC(O)CC1 (stereo unspecified) registered its melting point at 20 °C

Clc1ccc2c(c1)C(c1ccccc1)=NCc1nnc(C(Cl)Cl)n1-2 has a reported melting point of 193 to 196 °C
